# SYSTEM TESTED: GPR84 (Homo sapiens)
# Construct: expressed in transfected cells
# Sequence (Q9NQS5 whole entry): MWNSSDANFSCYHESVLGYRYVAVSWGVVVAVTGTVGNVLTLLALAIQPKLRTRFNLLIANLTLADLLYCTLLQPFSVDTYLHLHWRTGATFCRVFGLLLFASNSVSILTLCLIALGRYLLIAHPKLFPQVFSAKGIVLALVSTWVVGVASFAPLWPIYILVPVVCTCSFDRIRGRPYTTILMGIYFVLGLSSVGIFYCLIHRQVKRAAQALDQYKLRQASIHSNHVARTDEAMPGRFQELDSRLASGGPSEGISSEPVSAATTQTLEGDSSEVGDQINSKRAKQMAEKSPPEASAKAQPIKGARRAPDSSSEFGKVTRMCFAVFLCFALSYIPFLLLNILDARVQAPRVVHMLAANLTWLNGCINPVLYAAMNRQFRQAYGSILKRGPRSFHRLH
# MEASUREMENT NOTES: GPR84 [35S]GTPγS binding assay, HEPES buffer
# Format: biochemical
# PROTOCOL CONDITIONS: 3,3′ di indolylmethane at EC80, membranes from stable cell line over expressing GPR84
pIC50: −log10 of the molar value.

- COMPOUND: "O=C(COc1ccc2c(c1)CCn1c-2cc(OCC2COc3ccccc3O2)nc1=O)NCc1ccccc1 (centres unmarked)"
  SYSTEM TESTED: "GPR84 (Homo sapiens)"
  pIC50: "7.00 to 11.00"
- COMPOUND: "CC(C)N(C)C(=O)COc1ccc2c(c1)CCn1c-2cc(OCC2COc3ccccc3O2)nc1=O (centres unmarked)"
  SYSTEM TESTED: "GPR84 (Homo sapiens)"
  pIC50: "7.00 to 11.00"
- COMPOUND: "O=c1nc(OCC2COc3ncccc3O2)cc2n1CCc1cc(OCC3CCCCO3)ccc1-2 (centres unmarked)"
  SYSTEM TESTED: "GPR84 (Homo sapiens)"
  pIC50: "7.00 to 11.00"
- COMPOUND: "CCNC1(C#Cc2ccc3c(c2)CCn2c-3cc(OCC3COc4ncccc4O3)nc2=O)COC1 (centres unmarked)"
  SYSTEM TESTED: "GPR84 (Homo sapiens)"
  pIC50: "6.30 to 7.00"
- COMPOUND: "O=c1nc(OCC2CCCO2)cc2n1CCc1cc(OCc3ccc4ccccc4c3)ccc1-2 (centres unmarked)"
  SYSTEM TESTED: "GPR84 (Homo sapiens)"
  pIC50: "7.00 to 11.00"
- COMPOUND: "CN(C)CCCOc1ccc2c(c1)CCn1c-2cc(OCC2COc3ccccc3O2)nc1=O (centres unmarked)"
  SYSTEM TESTED: "GPR84 (Homo sapiens)"
  pIC50: "6.00 to 6.30"
- COMPOUND: "O=c1nc(OCC2COc3ncccc3O2)cc2n1CCc1cc(C#CCN3CCS(=O)(=O)CC3)ccc1-2 (centres unmarked)"
  SYSTEM TESTED: "GPR84 (Homo sapiens)"
  pIC50: "6.30 to 7.00"
- COMPOUND: "CN(C)CC#Cc1ccc2c(c1)CCn1c-2cc(OCC2COc3ncccc3O2)nc1=O (centres unmarked)"
  SYSTEM TESTED: "GPR84 (Homo sapiens)"
  pIC50: "7.00 to 11.00"
- COMPOUND: "CN(CC#Cc1ccc2c(c1)CCn1c-2cc(OCC2COc3ncccc3O2)nc1=O)Cc1ccccc1 (centres unmarked)"
  SYSTEM TESTED: "GPR84 (Homo sapiens)"
  pIC50: "6.30 to 7.00"
- COMPOUND: "N#Cc1cccc(-c2ccc3c(c2)CCn2c-3cc(OCC3COc4ncccc4O3)nc2=O)c1 (centres unmarked)"
  SYSTEM TESTED: "GPR84 (Homo sapiens)"
  pIC50: "7.00 to 11.00"
- COMPOUND: "N#Cc1cccc(COc2ccc3c(c2)CCn2c-3cc(OCC3CCCO3)nc2=O)c1 (centres unmarked)"
  SYSTEM TESTED: "GPR84 (Homo sapiens)"
  pIC50: "6.30 to 7.00"
